Cited source: patent US20230121116A1

- System: MDA175-VII (NRG1-DOC4 fusion) cells
- Run description: Cell viability of MDA175-VII (NRG1-DOC4 fusion) cells, Cell Titer Glo assay
- Type: cell-based
- Cond: MDA175-VII (NRG1-DOC4 fusion) cells treated with IACS inhibitors, 72 hours
Reported pIC50 is given for each of the following molecules.
Field pIC50 (float): negative decimal logarithm of the concentration in molar.

Field: example entries. Status: answers known.
{"Molecule": "C=CC(=O)N1CCC(Oc2cc3c(Nc4ccccc4)ncnc3cc2OC)CC1", "Tested target": "MDA175-VII (NRG1-DOC4 fusion) cells", "pIC50": 8.99}
{"Molecule": "C=CC(=O)N1CCC(Oc2cc3c(Nc4ccc(Cl)c(Cl)c4F)ncnc3cc2OC)C1 (stereo not shown)", "Tested target": "MDA175-VII (NRG1-DOC4 fusion) cells", "pIC50": 8.51}
{"Molecule": "C=CC(=O)N1CC(Oc2cc3c(Nc4ccc(Cl)c(Cl)c4)ncnc3cc2OC)C1", "Tested target": "MDA175-VII (NRG1-DOC4 fusion) cells", "pIC50": 9.57}

Now, please, on to the next molecule.
Sample C=CC(=O)N1CC(Oc2cc3c(Nc4ccc(Cl)c(Cl)c4F)ncnc3cc2OC)C1 — what was its pIC50?
9.80
